Reported growth values are given for each entry in this list.
Tested on: M14 melanoma
Assay: NCI-60 one-dose screen, 48 h (100 = growth as untreated, 0 = no growth, -100 = all killed)
Conditions: 10 µM unless noted
Compounds without any hit were thinned out: in the full panel of roughly 83,000, 20% have a hit. Activity calls are given as the source filed them. The calls were made as follows: active = growth percent below 10; inactive = the rest.
Endpoint Label: growth

INSERT INTO assay_data (compound, result) VALUES
  ('CNc1ccccc1C(=O)N/N=C/C=C/c1ccccc1', '17.1% (inactive)'),
  ('CC(O)C(F)(F)C(F)(F)C(F)(F)F (stereo not given)', '103% (inactive)'),
  ('CC(=O)OC(C)c1cccc(C#N)c1 (stereo not given)', '97.4% (inactive)'),
  ('CC(=O)N(CCCCCCN(C(C)=O)C(C)=O)C(C)=O', '105% [100 µM] (inactive)'),
  ('NNc1ncnc2c1ncn2C1OC(CO)C(O)C1O (stereo not given)', '31.6% (inactive)'),
  ('CCOC(=O)/C(C)=C\c1ccc(OC)c(OC)c1', '105% (inactive)'),
  ('Cc1cc(=O)n(Nc2ccccc2)c(O)c1C#N', '99.4% (inactive)'),
  ('COC1(OC)C2(Cl)C(Cl)=C(Cl)C1(Cl)C1COCC12 (stereo not given)', '100% (inactive)'),
  ('COc1ccc(Br)c2c1C(=O)CC2', '110% (inactive)'),
  ('c1ccc(-c2ccc3ccccc3c2)cc1', '103% (inactive)'),
  ('C(=C\c1ccncc1)/c1ccncc1', '105% (inactive)'),
  ('CCC(=O)Oc1c(C)cc(O)c2ccccc12', '95.2% (inactive)'),
  ('Oc1ccc(N=Cc2ccc(OCc3ccccc3)cc2)cc1', '104% (inactive)'),
  ('O=c1nc(Nc2cccc(Cl)c2)oc2cc(Cl)oc(=O)c12', '66.2% (inactive)'),
  ('Cc1ccc(OC(=O)c2ccccc2)cc1', '113% (inactive)'),
  ('C/C(=N\N=C(/C)c1cccc([N+](=O)[O-])c1)c1cccc([N+](=O)[O-])c1', '-36.5% (active)'),
  ('CC(=O)c1cccc(NS(=O)(=O)c2ccc(C)cc2)c1', '60.6% (inactive)'),
  ('Cc1cc(NC(=O)c2ccccc2)c(Cl)cc1N', '95.8% (inactive)'),
  ('O=C1CSc2ccccc2N1', '113% (inactive)'),
  ('C=CC1=NC(C)(C)CC(C)O1 (stereo not given)', '112% (inactive)');

###

Reported growth values are given for each entry in this list.
System: UACC-257 melanoma
Test: NCI-60 one-dose screen, 48 h (100 = growth as untreated, 0 = no growth, -100 = all killed)
Details: 10 µM unless noted
The panel holds about 83,000 compounds, 20% with a hit somewhere; the sample as a whole holds those more often. Activity calls are given as the source filed them. How the source made its calls: active means growth percent below 10; inactive means the rest.
Endpoint Label: growth

INSERT INTO assay_data (compound, result) VALUES
  ('CN=S(=O)(OCCCCCOS(=O)(=NC)c1ccc(C)cc1)c1ccc(C)cc1 (configuration not stated)', '124% (inactive)'),
  ('CCNC(=O)Oc1ccc[nH]c1=O', '97.8% (inactive)'),
  ('N#Cc1ccc(OC(=O)Nc2c(Cl)cc(Cl)cc2Cl)cc1', '97.7% (inactive)'),
  ('CC(C)OCC(CCl)OC(=O)Nc1ccccc1 (configuration not stated)', '102% (inactive)'),
  ('Cc1nc(O)cc(=O)[nH]1', '92.1% (inactive)'),
  ('O=C(Nc1c(Cl)cc(Cl)cc1Cl)ON=C1CCCCC1', '102% (inactive)'),
  ('CCCCNc1ccc(-c2ccc(NCCCC)cc2)cc1', '70.7% (inactive)'),
  ('CCCOCc1cn[nH]n1', '94% (inactive)'),
  ('C1CCc2onc(-c3noc4c3CCCCC4)c2CC1', '107% (inactive)'),
  ('COC(=O)c1ccc([N+](=O)[O-])c(C)c1', '101% (inactive)'),
  ('CC(C)(C)[Si](C)(C)OCC1OC(n2cnc3c(N)ncnc32)CC1OS(C)(=O)=O (configuration not stated)', '94.7% (inactive)'),
  ('Cc1ccc(C)c2c1CCC2=O', '107% (inactive)'),
  ('O=C(O)C1CCCN1C(=O)OCc1ccccc1 (configuration not stated)', '105% (inactive)'),
  ('C/C(=N\N=C(/C)c1cccc([N+](=O)[O-])c1)c1cccc([N+](=O)[O-])c1', '87.6% (inactive)'),
  ('Clc1cccc(Cl)c1CSc1nc2ccccc2n2cccc12', '95.6% (inactive)'),
  ('C=C1SC(=Nc2c(C)cccc2C)N(c2nc(Cl)nc(Cl)n2)C12CCCCC2', '94.6% (inactive)'),
  ('Nc1ncc([N+](=O)[O-])cn1', '84.7% (inactive)'),
  ('CSc1cnc2ccccc2n1', '91.3% (inactive)'),
  ('CN1C(=O)NC(c2ccc(Cl)cc2)(c2ccc(Cl)cc2)C1=O', '118% (inactive)'),
  ('CC(C)N(CCCC#N)C(C)C', '89.2% (inactive)'),
  ('Cn1/c(=N\N=C\c2ccccc2OCCO)sc2ccccc21', '121% (inactive)'),
  ('ClCC(Cl)[C@@H]1CC2C=CC1C2 (some centres not stated)', '105% (inactive)'),
  ('CCCCOC(=O)c1ccc(NC(=O)CCl)cc1', '75.5% (inactive)'),
  ('Cc1cc(=O)n(Nc2ccccc2)c(O)c1C#N', '116% (inactive)'),
  ('CC(=O)c1cccc(NS(=O)(=O)c2ccc(C)cc2)c1', '86.6% (inactive)'),
  ('CC(C)(C)CC1(C)NC(=O)NC1=O (configuration not stated)', '114% (inactive)'),
  ('Clc1ccc(/C=C/c2ccccn2)cc1', '103% (inactive)'),
  ('CCOC(=O)CO', '102% (inactive)'),
  ('CCOc1ccc2c(c1)c(C)cc(C)[n+]2CC', '76% (inactive)'),
  ('Clc1ccc(C(SCc2ccccc2)SCc2ccccc2)cc1', '88.2% (inactive)'),
  ('CC(=O)C1C(=O)C(=O)N(c2cccc([N+](=O)[O-])c2)C1=O (configuration not stated)', '97.4% (inactive)'),
  ('NNc1ncnc2c1ncn2C1OC(CO)C(O)C1O (configuration not stated)', '84.9% (inactive)'),
  ('O=C(NC(=S)N1CC=CCC1)c1ccccc1', '105% (inactive)'),
  ('CCCCCCCCCCCCSC1=C(Cl)C(=O)C(OC)=C(OC)C1=O', '26.8% (inactive)'),
  ('Nc1ncnc(Nc2ccccc2)n1', '108% (inactive)'),
  ('NNC(=O)N/N=C1\C(=O)N(c2nccs2)C(=O)C(=O)C1c1nc2ccccc2s1 (configuration not stated)', '68.9% (inactive)'),
  ('COc1cc(OC)c2cc(C(=O)c3ccc(C#N)cc3)c(=O)oc2c1', '102% (inactive)'),
  ('O=C(c1cccc(C(=O)c2ccc3c4c(cccc24)C(=O)N(c2ccccc2)C3=O)c1)c1ccc2c3c(cccc13)C(=O)N(c1ccccc1)C2=O', '92% (inactive)'),
  ('CN(C)c1ncnc2c1cnn2C', '84.2% (inactive)'),
  ('CCC12OC(COc3ccccc3)CN1CCN2c1ccccc1 (configuration not stated)', '95.8% [100 µM] (inactive)'),
  ('CC(C)c1ccc(C(=O)OCCCl)cc1', '95.3% (inactive)'),
  ('C=CCC(OC(C)=O)c1ccc(C(C)C)cc1 (configuration not stated)', '105% (inactive)'),
  ('CC(C)NC(=O)OCc1c(COC(=O)NC(C)C)c(-c2ccc(Cl)cc2)n2c1CCC2', '88.8% (inactive)'),
  ('CC(=O)C[n+]1ccc(C)cc1Sc1ccccc1C', '97.8% (inactive)'),
  ('COC1OC(C(COC(C)=O)OC(C)=O)C(OC(C)=O)C(OC(C)=O)C1OC(C)=O (configuration not stated)', '110% (inactive)'),
  ('O=CNCCc1ccccc1', '103% (inactive)'),
  ('CC1CCC(C(C)(C)[N+](C)(C)C)CC1 (configuration not stated)', '99.6% (inactive)');
